# Test system: Platelet-derived growth factor receptor alpha (Homo sapiens), P16234 [T674I]
# Sequence (P16234 whole entry T674I): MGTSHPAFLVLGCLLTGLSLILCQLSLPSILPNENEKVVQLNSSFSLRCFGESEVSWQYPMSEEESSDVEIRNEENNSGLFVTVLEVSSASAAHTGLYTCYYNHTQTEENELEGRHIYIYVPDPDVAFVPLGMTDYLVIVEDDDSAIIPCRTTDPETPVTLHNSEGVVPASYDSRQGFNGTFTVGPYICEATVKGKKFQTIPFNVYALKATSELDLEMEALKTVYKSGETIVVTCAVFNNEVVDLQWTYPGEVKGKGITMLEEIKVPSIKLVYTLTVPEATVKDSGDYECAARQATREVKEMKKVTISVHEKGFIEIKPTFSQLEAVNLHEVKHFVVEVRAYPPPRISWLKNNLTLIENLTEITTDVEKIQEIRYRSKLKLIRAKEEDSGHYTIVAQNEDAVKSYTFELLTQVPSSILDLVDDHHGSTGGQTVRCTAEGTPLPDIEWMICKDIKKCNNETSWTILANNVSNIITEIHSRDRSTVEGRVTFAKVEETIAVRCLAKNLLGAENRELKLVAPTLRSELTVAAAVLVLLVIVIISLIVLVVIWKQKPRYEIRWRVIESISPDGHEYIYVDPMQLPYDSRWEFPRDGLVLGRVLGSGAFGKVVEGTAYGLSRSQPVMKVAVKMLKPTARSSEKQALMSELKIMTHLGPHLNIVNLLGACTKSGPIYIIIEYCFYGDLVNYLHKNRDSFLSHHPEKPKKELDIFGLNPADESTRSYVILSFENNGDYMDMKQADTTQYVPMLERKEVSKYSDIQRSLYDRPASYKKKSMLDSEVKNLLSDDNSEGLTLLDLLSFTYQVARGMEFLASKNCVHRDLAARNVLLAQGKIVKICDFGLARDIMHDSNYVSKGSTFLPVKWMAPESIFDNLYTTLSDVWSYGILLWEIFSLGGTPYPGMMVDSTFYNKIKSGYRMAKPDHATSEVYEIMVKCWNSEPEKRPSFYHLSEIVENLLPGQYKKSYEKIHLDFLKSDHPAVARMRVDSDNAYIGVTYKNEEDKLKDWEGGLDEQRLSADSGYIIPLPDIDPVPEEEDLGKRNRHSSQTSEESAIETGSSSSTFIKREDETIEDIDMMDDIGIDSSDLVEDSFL
# Experimental parameters: at 1 µM
Recorded endpoint: inhibition (%)
Kindly answer with a numeric value in %, unit omitted.

Fc1ccc(-c2ncn(C3CCNCC3)c2-c2ccnc(Oc3ccc(F)c(F)c3)n2)cc1	7.95

Query: Request: inhibition, test system Platelet-derived growth factor receptor alpha (Homo sapiens), P16234 [T674I], entry `Cc1ccc(C(=O)NC(C)C)cc1-c1ccc(C(=O)NCC2CC2)cc1`
Result: 4.14

Query: Give inhibition (Platelet-derived growth factor receptor alpha (Homo sapiens), P16234 [T674I]) of the following compound: `COc1cc(C)c(N(C)C(=O)CN(C)C)cc1Nc1nc(Nc2cccc(F)c2C(N)=O)c2cc[nH]c2n1`
Result: -0.57

Query: Return inhibition measured with Platelet-derived growth factor receptor alpha (Homo sapiens), P16234 [T674I] given this compound: `COc1cccc(/C=N/Nc2ncnc3c2cnn3-c2cccc(OC)c2)c1`
Result: 6.59

Query: Can you look up inhibition on Platelet-derived growth factor receptor alpha (Homo sapiens), P16234 [T674I] for `CN(C)c1ccc2c(c1)/C(=C/Nc1ccc(S(N)(=O)=O)cc1)C(=O)N2` ?
Result: 28.2
